The reported numbers originate from PubChem BioAssay (NCI).

The compounds listed here are annotated with their TGI.
- Test system: IGROV1 ovarian
- ASSAY OVERVIEW: NCI tumour cell line growth inhibition, 48 h
Please give a number only; it is taken to be in µM.

Determine its reported TGI: `CC(C)(C)C(=O)c1c(C(F)(F)F)n([O-])c2ccccc2[n+]1=O`
0.172

Determine its reported TGI: `COC(=O)c1c2c(c[n+]([O-])c1C)C(=O)C=CC2=O`
4.54

Determine its reported TGI: CC[N+](CC)=c1sc2c(s1)C(c1ccc(Cl)cc1)Oc1ccc(Cl)cc1-2 (stereo unspecified)
10.7

Determine its reported TGI: `Clc1nc(Cl)c2ncn(Cc3cccc(Cn4cnc5c(Cl)nc(Cl)nc54)c3)c2n1`
20.2

Determine its reported TGI: CCCN(CCCC(NC(C)=O)C(=O)NCc1ccccc1)C(=O)N(CCCl)N=O (stereo unspecified)
57.3

Determine its reported TGI: `CCCNNC(=O)/C=C/c1ccc(CNCCc2c(C)[nH]c3ccccc23)cc1`
0.216

###

- Tested on: KM12 colon
- ASSAY OVERVIEW: NCI tumour cell line growth inhibition, 48 h
The compounds listed here are annotated with their TGI.

- COMPOUND: "O=C(/N=C/c1c(O)c2ccccc2oc1=O)Nc1ccccc1"
  READOUT LABEL: "TGI"
  MEASURED RESULT: "> 100 µM"

Determine its reported TGI: `O=c1nc(/C=C/c2ccccc2Cl)cc2n1CCN2CCO`
> 100 µM

Determine its reported TGI: `C=C1C(=O)O[C@@H]2C[C@@H](C)[C@@H]3C=CC(=O)[C@@]3(C)[C@@H](OC(=O)CC(=O)O[C@H]3[C@@H]4C(=C)C(=O)O[C@@H]4C[C@@H](C)[C@@H]4C=CC(=O)[C@]43C)[C@H]12`
0.16 µM

Determine its reported TGI: `CC1=Nc2nc(Cl)cn2C(=O)C1(Cl)Cl`
> 10 µM

Determine its reported TGI: `OCc1ccc(-c2ccc(-c3ccc(CO)o3)[se]2)o1`
> 100 µM

###

The molecules listed here are annotated with their TGI.
- Tested on: SNB-75 CNS
- ASSAY OVERVIEW: NCI tumour cell line growth inhibition, 48 h
Please give a number only; it is taken to be in µM.

Use these answered entries as a reference point.
- SMI: "C[Si](C)(OCCS(=O)(=O)O)C1(Cc2cccc3ccccc23)S(=O)(=O)OCCOS1(=O)=O"
  ASSAY TARGET: "SNB-75 CNS"
  TGI, µM: 55.1
- SMI: "COc1ccc2nc3c([N+](=O)[O-])ccc4c3c(c2c1)NCCN4CCO"
  ASSAY TARGET: "SNB-75 CNS"
  TGI, µM: 1.88
- SMI: "COc1cc(OC)cc(N(CCNC(C)C)c2ccc3ncc(-c4cnn(C)c4)nc3c2)c1"
  ASSAY TARGET: "SNB-75 CNS"
  TGI, µM: 4.2
- SMI: "O=S(=O)(CCBr)CCBr"
  ASSAY TARGET: "SNB-75 CNS"
  TGI, µM: 25.5
- SMI: "COC(=O)CCC(=O)NC1=C(Nc2ccc(OC)cc2)C(=O)c2ccccc2C1=O"
  ASSAY TARGET: "SNB-75 CNS"
  TGI, µM: 21.2

Then there is this molecule:
Determine its reported TGI: `CC(=O)O[C@H]1CC[C@@]2(C)C(=CC[C@H]3[C@@H]4CC[C@H](c5cc(C(F)(F)F)n(C(C)=O)n5)[C@@]4(C)CC[C@@H]32)C1`
20.8

###

- Tested on: CAKI-1 renal
- ASSAY OVERVIEW: NCI tumour cell line growth inhibition, 48 h
The compounds listed here are annotated with their TGI.

Use these answered entries as a reference point.
- COMPOUND: "Cc1cc(S(=O)(=O)Nc2nc3cscc3c(=O)n2Cc2ccccc2)c(S)cc1Cl"
  TGI: "> 100 µM"
- COMPOUND: "COC(=O)/C=C1/CCC(C(=O)OC)N1 (stereo not given)"
  TGI: "> 100 µM"
- COMPOUND: "O=C1c2ccccc2-c2c1c1c(=O)[nH]c3ccccc3c1n2Cc1ccccc1"
  TGI: "> 100 µM"
- COMPOUND: "CC(=O)OCC1OC(n2c(-c3ccc(Cl)cc3)ccc(C#N)c2=S)C(OC(C)=O)C(OC(C)=O)C1OC(C)=O (stereo not given)"
  TGI: "> 100 µM"
- COMPOUND: "Oc1[nH]c2ccccc2c1N=Nc1ccccn1"
  TGI: "> 100 µM"

Determine its reported TGI: `COc1cc2c(c(OC)c1OC)-c1ccc(SC)c(=O)cc1[C@@H](NCc1ccc(C#N)cc1)CC2`
> 100 µM

###

- Test system: IGROV1 ovarian
- ASSAY OVERVIEW: NCI tumour cell line growth inhibition, 48 h; in the data active = GI50 below about 0.43 µM; inactive = the rest
Just give me one of these, please: TRUE = active, FALSE = inactive

Answered cases to consult:
- MOLECULE: "O=C(Nc1cccc(-n2ccc3c(NC(=O)c4ccccc4)nccc32)c1)Nc1cc(C(F)(F)F)cc(C(F)(F)F)c1"
  CLASS: "FALSE"
- MOLECULE: "[Cl-].[O-]/N=C(\\c1ccccc1)c1ccccn1.[O-]/N=C(\\c1ccccc1)c1ccccn1.[O-]/N=C(\\c1ccccc1)c1ccccn1.[Sm+3]"
  CLASS: "FALSE"
- MOLECULE: "C=C1C(O)C2C(=C(CCc3ccccc3)C13CC3)C(=O)C(C)(CO)C2O (configuration not stated)"
  CLASS: "FALSE"
- MOLECULE: "CC(=O)[CH-]C(C)=O.CC(=O)[CH-]C(C)=O.[CH2-]CCC.[CH2-]CCC.[Sn+4]"
  CLASS: "FALSE"
- MOLECULE: "CC[N+](CC)=c1sc2c(s1)C(c1ccc(Cl)cc1)Oc1ccc(Cl)cc1-2 (configuration not stated)"
  CLASS: "FALSE"
- MOLECULE: "COC(=O)c1c2c(c[n+]([O-])c1C)C(=O)C=CC2=O"
  CLASS: "FALSE"

Please let me know the test result on file for `COc1ccc(S(=O)(=O)N2CC(C)(C)CN(S(=O)(=O)c3ccc(OC)cc3)C2C(=O)NO)cc1` .
FALSE

Please let me know the test result on file for CCC[CH2][Sn]1([CH2]CCC)[O]CC(Cc2ccccc2)[O]1 (configuration not stated) .
FALSE

Please let me know the test result on file for `OCc1ccc(-c2ccc(-c3ccc(CO)o3)[se]2)o1` .
FALSE

Please let me know the test result on file for `COc1cc(/C=C2\C(=O)Nc3cc(C)c(O)cc32)cc(OC)c1OC` .
FALSE

Please let me know the test result on file for `COC(=O)CCc1c[nH]c2ccc(N(CCCl)CCCl)cc12` .
FALSE

Please let me know the test result on file for `CCN(Cc1cccc(F)c1)c1ccc(CO)c(Cl)c1` .
TRUE

###

The molecules listed here are annotated with their TGI.
- System: UO-31 renal
- ASSAY OVERVIEW: NCI tumour cell line growth inhibition, 48 h

Use these answered entries as a reference point.
- MOLECULE: "COc1ccc(OC)c2c1CC(C(=O)O)(C(=O)O)CC2=O"
  READOUT LABEL: "TGI"
  MEASURED RESULT: "> 100 µM"
- MOLECULE: "O=C(CP(=O)(O)O)NC(CC(=O)OCc1ccccc1)C(=O)OCc1ccccc1 (stereo not drawn)"
  READOUT LABEL: "TGI"
  MEASURED RESULT: "> 100 µM"

Then there is this molecule:
Determine its reported TGI: `Cc1sc2nc(-c3ccncc3)c(/C=N/N=C(N)N)n2c1C`
> 100 µM

###

- Tested on: M14 melanoma
- ASSAY OVERVIEW: NCI tumour cell line growth inhibition, 48 h
The compounds listed here are annotated with their TGI.

Use these answered entries as a reference point.
- COMPOUND: "Cc1nc(C)c(C(=O)NNC(N)=S)cc1C(=O)NNC(N)=S"
  READOUT LABEL: "TGI"
  MEASURED RESULT: "> 100 µM"
- COMPOUND: "COc1cc2c(cc1OC)C(C(CO)CO)N(CC(O)CCl)CC2 (stereo not given)"
  READOUT LABEL: "TGI"
  MEASURED RESULT: "> 100 µM"
- COMPOUND: "CC[C@]12C=CCN3CC[C@@]4(c5cc(Br)c(OC)cc5N(C)[C@H]4[C@@](O)(C(=O)NN)[C@@H]1O)[C@@H]32"
  READOUT LABEL: "TGI"
  MEASURED RESULT: "> 100 µM"
- COMPOUND: "C=C(COC(C)=O)CC(OC(C)=O)c1ccccc1 (stereo not given)"
  READOUT LABEL: "TGI"
  MEASURED RESULT: "> 100 µM"
- COMPOUND: "COc1ccc(OC)c2c1CC(C(=O)O)(C(=O)O)CC2=O"
  READOUT LABEL: "TGI"
  MEASURED RESULT: "> 100 µM"
- COMPOUND: "O=C1c2ccccc2C(Br)(Br)c2ccccc21"
  READOUT LABEL: "TGI"
  MEASURED RESULT: "> 31.6 µM"

Consider the compound `COc1ccc(S(=O)(=O)Nc2ccccc2C(=O)O)cc1` tested on M14 melanoma; state its TGI.
> 100 µM

Consider the compound `COc1ccc2nc3ccc(OC)cc3c(SCCO)c2c1` tested on M14 melanoma; state its TGI.
> 100 µM

Consider the compound CCCCC(=O)NS(=NC(=O)c1ccccc1)C(Cl)(Cl)Cl (stereo not given) tested on M14 melanoma; state its TGI.
> 100 µM

Consider the compound `Cc1cc(S(=O)(=O)Nc2nc3cscc3c(=O)n2Cc2ccccc2)c(S)cc1Cl` tested on M14 melanoma; state its TGI.
> 100 µM

Consider the compound `COC(=O)CCc1c[nH]c2ccc(N(CCCl)CCCl)cc12` tested on M14 melanoma; state its TGI.
11.5 µM

Consider the compound `[Cl][Hg][Cl]` tested on M14 melanoma; state its TGI.
32.2 µM
